Measured IC50, listed per entry for reference.
Target: FAAH (Mus musculus)
Construct: Proteomes (mouse brain membrane fraction or cell lysates); from tissue; host or cells: mouse brain membrane fraction (or unspecified cell lysates)
Sequence (O08914 whole entry): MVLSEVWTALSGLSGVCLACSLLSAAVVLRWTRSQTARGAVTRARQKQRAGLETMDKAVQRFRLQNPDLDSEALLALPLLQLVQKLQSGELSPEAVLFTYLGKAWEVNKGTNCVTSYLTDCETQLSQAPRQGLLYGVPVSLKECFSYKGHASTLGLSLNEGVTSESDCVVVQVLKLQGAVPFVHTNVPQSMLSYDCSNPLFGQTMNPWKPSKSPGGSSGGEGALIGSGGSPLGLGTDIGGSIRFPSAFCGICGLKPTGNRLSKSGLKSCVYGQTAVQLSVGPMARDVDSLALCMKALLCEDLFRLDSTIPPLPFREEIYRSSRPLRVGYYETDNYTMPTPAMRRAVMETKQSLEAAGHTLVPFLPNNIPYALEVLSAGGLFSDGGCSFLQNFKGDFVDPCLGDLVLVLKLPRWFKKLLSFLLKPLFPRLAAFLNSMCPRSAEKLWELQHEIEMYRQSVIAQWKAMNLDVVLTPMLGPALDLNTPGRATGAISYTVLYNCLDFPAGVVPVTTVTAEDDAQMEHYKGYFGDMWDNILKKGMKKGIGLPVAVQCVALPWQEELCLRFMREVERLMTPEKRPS
Experiment: In vitro competitive activity-based protein profiling (mouse), FAAH
Assay type: biochemical
Conditions: mouse brain membrane fraction or cell lysates, 30 min preincubation at 37° C, FP-Rh probe

O=C(O)C1CCN(c2cc(CN3CCN(C(=O)OC(C(F)(F)F)C(F)(F)F)CC3)ccc2C(F)(F)F)C1 (centres unmarked); > 1000 nM

# IC50 (compound: Cc1c(CN2CCN(C(=O)OC(C(F)(F)F)C(F)(F)F)CC2)cccc1N1CCC(NS(C)(=O)=O)CC1 ) is > 1000 nM

GET /value?item= Cc1c(CN2CCOCC2)cccc1CN1CCN(C(=O)OC(C(F)(F)F)C(F)(F)F)CC1 &field=IC50 returns > 1000 nM

Quick note, IC50 for O=C(O)C1CCN(c2cc(CN3CCN(C(=O)OC(C(F)(F)F)C(F)(F)F)CC3)cc(C(F)(F)F)c2)CC1 landed at > 1000 nM
